- Tested on: Plasmodium berghei
- TEST NAME: Screen against P. berghei liver stage (PbLuc), transformed with Luciferase, at 2uM
- Format: functional, HepG2
- CONDITION: tested at 2 uM
The whole screen tested about 68,000 compounds, of which about 2,700 (4%) showed an effect of 50% or more. This is one part of a sample in which strong results are shown more often than they occur.
Classification field: y = INHIBITION at or over 30%; n = INHIBITION under 30%.

{"COMPOUND": "COc1ccc(-c2nccnc2C2CCN(C(C)=O)CC2)cc1", "CATEGORY": "n"}
{"COMPOUND": "CN(CC(=O)N1CCC(Oc2ccccc2)CC1)c1cnccn1", "CATEGORY": "y"}
{"COMPOUND": "CC(=O)N1CCC(c2nccnc2-c2ccc(C(=O)O)cc2)CC1", "CATEGORY": "y"}
{"COMPOUND": "CN(CC(=O)N1CCC(N(C)c2ccccc2)CC1)c1cnccn1", "CATEGORY": "n"}
{"COMPOUND": "CC(=O)N1CCC(c2nccnc2-c2ccc(F)cc2)CC1", "CATEGORY": "y"}
{"COMPOUND": "Cc1cc(CN2CCCC2c2noc(C)n2)no1 (stereo unspecified)", "CATEGORY": "n"}

* * *

Reported INHIBITION values for a set of molecules
- Tested on: Plasmodium berghei
- TEST NAME: Screen against P. berghei liver stage (PbLuc), transformed with Luciferase, at 2uM
- Type: functional, HepG2
- CONDITION: tested at 2 uM
Screen size: about 68,000 compounds; about 2,700 (4%) showed an effect of 50% or more. The list comes from a sample in which strong results are over-represented; it also holds close analogues and randomly drawn compounds.
MEASURED ATTRIBUTE: INHIBITION

{"MOLECULE": "Cc1cc(C)n(C2CCCN(C(=O)Cc3cn4ccsc4n3)C2)n1 (configuration not stated)", "ASSAY SYSTEM": "Plasmodium berghei", "ENDPOINT RESULT": "20.57%"}
{"MOLECULE": "CN(C)C(=O)Cc1ccc(-c2cccc3c2CCNC3)cc1", "ASSAY SYSTEM": "Plasmodium berghei", "ENDPOINT RESULT": "2.11%"}
{"MOLECULE": "Cc1noc2nc(C3CCCN(Cc4ccncc4)C3)cc(C(F)F)c12 (configuration not stated)", "ASSAY SYSTEM": "Plasmodium berghei", "ENDPOINT RESULT": "63.66%"}
{"MOLECULE": "O=C1Nc2ccccc2CC12CCCN2Cc1ccc(F)cc1 (configuration not stated)", "ASSAY SYSTEM": "Plasmodium berghei", "ENDPOINT RESULT": "-0.14%"}
{"MOLECULE": "Cc1nc[nH]c1C(=O)N1CCC2(CN(C)C(=O)O2)C1 (configuration not stated)", "ASSAY SYSTEM": "Plasmodium berghei", "ENDPOINT RESULT": "36.22%"}
{"MOLECULE": "Cn1cc(C(O)CNC(=O)c2cc(Br)ccc2Cl)cn1 (configuration not stated)", "ASSAY SYSTEM": "Plasmodium berghei", "ENDPOINT RESULT": "20.29%"}
{"MOLECULE": "Cc1cc(F)ccc1NC(=O)NCC(C)N1CCOCC1 (configuration not stated)", "ASSAY SYSTEM": "Plasmodium berghei", "ENDPOINT RESULT": "48.59%"}
{"MOLECULE": "CCc1ccc(S(=O)(=O)Nc2ccncc2)s1", "ASSAY SYSTEM": "Plasmodium berghei", "ENDPOINT RESULT": "-13.03%"}
{"MOLECULE": "Cc1ccc(F)cc1NC(=O)NCC(C)N1CCOCC1 (configuration not stated)", "ASSAY SYSTEM": "Plasmodium berghei", "ENDPOINT RESULT": "-0.54%"}
{"MOLECULE": "CN1CC2(CCN(C(=O)c3ccc4c(=O)n(C)cnc4c3)CC2)CC1=O", "ASSAY SYSTEM": "Plasmodium berghei", "ENDPOINT RESULT": "-7.68%"}
{"MOLECULE": "COc1cc(C)c(NC(=O)CCn2cccc2)cc1OC", "ASSAY SYSTEM": "Plasmodium berghei", "ENDPOINT RESULT": "30.42%"}
{"MOLECULE": "COc1cc(Cl)c(NC(=O)NCCn2cccc2)cc1OC", "ASSAY SYSTEM": "Plasmodium berghei", "ENDPOINT RESULT": "-23.44%"}

* * *

- Test system: Plasmodium berghei
- TEST NAME: Screen against P. berghei liver stage (PbLuc), transformed with Luciferase, at 2uM
- Type: functional, HepG2
- CONDITION: tested at 2 uM
Out of some 68,000 compounds screened, about 2,700 (4%) showed an effect of 50% or more. What follows is part of a selection rich in strong results, with near analogues and random picks from the rest.
MEASURED ATTRIBUTE: INHIBITION (%)

{"COMPOUND": "O=C(CS(=O)(=O)C1CCCC1)NC1CCCc2cc(OC(F)F)ccc21 (stereo unspecified)", "ASSAY SYSTEM": "Plasmodium berghei", "UNIT ABBREV": "%", "ENDPOINT RESULT": 14.88}
{"COMPOUND": "COCC1CC2(CCN(S(=O)(=O)C3CC3)CC2)CN1c1ncccn1 (stereo unspecified)", "ASSAY SYSTEM": "Plasmodium berghei", "UNIT ABBREV": "%", "ENDPOINT RESULT": 15.39}
{"COMPOUND": "CN(Cc1ncnn1C)C(=O)CCCn1ccc2cc(Cl)ccc21", "ASSAY SYSTEM": "Plasmodium berghei", "UNIT ABBREV": "%", "ENDPOINT RESULT": 57.23}
{"COMPOUND": "Cc1cccc(NC(=O)N(CCC(F)(F)F)C[C@H](O)CO)c1", "ASSAY SYSTEM": "Plasmodium berghei", "UNIT ABBREV": "%", "ENDPOINT RESULT": -24.88}
{"COMPOUND": "CN(CC(N)=O)C(=O)CCCn1ccc2cc(Cl)ccc21", "ASSAY SYSTEM": "Plasmodium berghei", "UNIT ABBREV": "%", "ENDPOINT RESULT": 28.42}
{"COMPOUND": "COc1c(C(=O)NCc2cccnc2)nnn1Cc1ccc(C)cc1", "ASSAY SYSTEM": "Plasmodium berghei", "UNIT ABBREV": "%", "ENDPOINT RESULT": -19.47}
{"COMPOUND": "COC(=O)CCC(=O)NC1CCCc2cc(OC(F)F)ccc21 (stereo unspecified)", "ASSAY SYSTEM": "Plasmodium berghei", "UNIT ABBREV": "%", "ENDPOINT RESULT": -41.81}
{"COMPOUND": "COc1cccc(NC(=O)N(CCO)Cc2ccsc2)c1", "ASSAY SYSTEM": "Plasmodium berghei", "UNIT ABBREV": "%", "ENDPOINT RESULT": -75.39}
{"COMPOUND": "Cc1cccc(CN2CCc3c(nc(N4CCC(C)CC4)[nH]c3=O)C2)n1", "ASSAY SYSTEM": "Plasmodium berghei", "UNIT ABBREV": "%", "ENDPOINT RESULT": 23.94}
{"COMPOUND": "CN(Cc1ncnn1C)C(=O)CCn1ccc2ccccc21", "ASSAY SYSTEM": "Plasmodium berghei", "UNIT ABBREV": "%", "ENDPOINT RESULT": -2.19}
{"COMPOUND": "CC(CS(C)(=O)=O)N(C(=O)Nc1ccc(F)cc1F)C1CC1 (stereo unspecified)", "ASSAY SYSTEM": "Plasmodium berghei", "UNIT ABBREV": "%", "ENDPOINT RESULT": -3.43}
